- subject_of_test: TYK2 (Homo sapiens)
- assay_name: TYK2 degradation MSD assay in human PBMC cells
- Format: cell-based
- Set-up: endogenous in cells; host or cells: human PBMC
- setup_conditions: 4 to 24 hours incubation, read-out: TYK2 MSD DC50 rating in human PBMC
reported_metric: DC50

In the examples that follow, each entry is paired with its recorded DC50.
INSERT INTO results (compound, subject_of_test, observed_measurement) VALUES
  ('CNc1cc(Nc2cccc(C(=O)NCCCCc3cccc4c3n(C)c(=O)n4C3CCC(=O)NC3=O)c2)nn2c(C(=O)N[C@@H]3C[C@@H]3F)cnc12 (stereo partly drawn)', 'TYK2 (Homo sapiens)', '> 100 nM'),
  ('CNC(=O)c1cnc(Nc2ccc(N3CCN(c4cccc5c4n(C)c(=O)n5C4CCC(=O)NC4=O)CC3)cn2)cc1Nc1cccc(-c2ncc(F)cn2)c1OC (stereo not drawn)', 'TYK2 (Homo sapiens)', '> 100 nM');

Ask: Can you share its DC50? I mean this compound: CNc1cc(N2CCc3c(-c4cc(N5CCN([C@H]6CC[C@H](c7ccc8c(c7)n(C)c(=O)n8C7CCC(=O)NC7=O)CC6)CC5)ccn4)cccc32)nn2c(C(=O)NC3CC3F)cnc12 (stereo partly drawn)
Reply: > 100 nM

---

- subject_of_test: TYK2 (Homo sapiens)
- assay_name: TYK2 degradation MSD assay in human PBMC cells
- Type: cell-based
- Parameters: endogenous in cells; host or cells: human PBMC
- setup_conditions: 4 to 24 hours incubation, read-out: TYK2 MSD DC50 rating in human PBMC
Documented DC50 across a set of molecules

A selection of reference data follows.
INSERT INTO measurements (molecule, observed_measurement) VALUES
  ('CNC(=O)c1cnc(Nc2ccc(CN3CCC(N(C)c4cccc5c4n(C)c(=O)n5C4CCC(=O)NC4=O)C3)cn2)cc1Nc1cccc(-c2ncc(F)cn2)c1OC (stereo not drawn)', '> 100 nM'),
  ('CNc1cc(Nc2cccc(CN(C)Cc3ccc(-c4ccc5c(c4)n(C)c(=O)n5C4CCC(=O)NC4=O)cn3)c2)nn2c(C(=O)NC3CC3)cnc12 (stereo not drawn)', '> 100 nM');

Ask: // returns reported DC50 for input CNC(=O)c1cnc(Nc2ccc(CN3CC(N(C)c4cccc5c4n(C)c(=O)n5C4CCC(=O)NC4=O)C3)cn2)cc1Nc1cccc(-c2ncc(F)cn2)c1OC (stereo not drawn)
Reply: > 100 nM

---

Entries annotated with measured DC50
- subject_of_test: UniProt:P29597
- assay_name: TYK2 degradation MSD assay in OCI-LY10 cells
- Assay type: cell-based
- Parameters: endogenous in cells; host or cells: EBV-B cells
- setup_conditions: 4 to 24 hours incubation, read-out: TYK2 MSD DC50 rating in OCI-LY10

Example results:
INSERT INTO assay_data (compound, observed_measurement) VALUES
  ('CNC(=O)c1cnc(Nc2ccc(CN3CCC(CN(C)c4ccc5c(c4)n(C)c(=O)n5C4CCC(=O)NC4=O)CC3)cn2)cc1Nc1cccc(-c2ncc(F)cn2)c1OC (stereo not shown)', '> 100 nM'),
  ('CNc1cc(Nc2cccn(-c3cc(C(=O)NCCCCCCc4cccc5c4n(C)c(=O)n5C4CCC(=O)NC4=O)ccn3)c2=O)nn2c(C(=O)N[C@@H]3C[C@@H]3F)cnc12 (stereo partly shown)', '> 100 nM'),
  ('CNc1cc(-c2cnn(C3CCC(CN4CCC(CN(C)c5ccc6c(c5)n(C)c(=O)n6C5CCC(=O)NC5=O)CC4)CC3)c2)nn2c(C(=O)NC3C[C@@H]3F)cnc12 (stereo partly shown)', '> 100 nM'),
  ('CNc1cc(Nc2cccc(-c3ccc(CN4CCN(c5ccc(-c6ccc7c(c6)n(C)c(=O)n7C6CCC(=O)NC6=O)cc5)CC4)cn3)c2)nn2c(C(=O)N[C@@H]3C[C@@H]3F)cnc12 (stereo partly shown)', '> 100 nM'),
  ('CNc1cc(-c2cn(C)c3c(-c4ccc(CN5CCN(c6ccc(-c7ccc8c(c7)n(C)c(=O)n8C7CCC(=O)NC7=O)cc6)CC5)cc4)cccc23)nn2c(C(=O)N[C@@H]3C[C@@H]3F)cnc12 (stereo partly shown)', '> 100 nM'),
  ('CNc1cc(Nc2cccn(-c3ccc(C(=O)N4CCN([C@H]5CC[C@H](c6ccc(-c7ccc8c(c7)n(C)c(=O)n8C7CCC(=O)NC7=O)cc6)CC5)CC4)cn3)c2=O)nn2c(C(=O)N[C@@H]3C[C@@H]3F)cnc12 (stereo partly shown)', '< 1 nM'),
  ('CNc1cc(Nc2cccn(-c3ccc(CN4CCN(c5ccc(-c6ccc7c(c6)n(C)c(=O)n7C6CCC(=O)NC6=O)cn5)C(=O)C4)cn3)c2=O)nn2c(C(=O)N[C@@H]3C[C@@H]3F)cnc12 (stereo partly shown)', '< 1 nM'),
  ('CNc1cc(Nc2cccc(CN3CCN(c4ccc(-c5ccc6c(c5)n(C)c(=O)n6C5CCC(=O)NC5=O)cc4)CC3)c2)nn2c(C(=O)N[C@@H]3C[C@@H]3F)cnc12 (stereo partly shown)', '< 1 nM');

Ask: State the recorded DC50 for this entry: CNc1cc(Nc2cccn(-c3ccc(C(=O)NCCOCCOCCc4cccc5c4n(C)c(=O)n5C4CCC(=O)NC4=O)cn3)c2=O)nn2c(C(=O)N[C@@H]3C[C@@H]3F)cnc12 (stereo partly shown)
Reply: > 100 nM

Ask: So what's the measured DC50 for this one? CNC(=O)c1cnc(Nc2ccc(C3CCN(Cc4cccc5c4n(C)c(=O)n5C4CCC(=O)NC4=O)CC3)cn2)cc1Nc1cccc(-c2ncc(F)cn2)c1OC (stereo not shown)
Reply: > 100 nM

Ask: Requested read-out: DC50. Entry: CNC(=O)c1cnc(Nc2cc(C(=O)NCCCCCCCCc3cccc4c3n(C)c(=O)n4C3CCC(=O)NC3=O)ccn2)cc1Nc1cccc(-c2ncc(F)cn2)c1OC (stereo not shown)
Reply: > 100 nM

Ask: What value of measured DC50 is listed for CNc1cc(Nc2cccn(-c3ccc(C(=O)N4CC5(C4)CN(c4ccc(-c6ccc7c(c6)n(C)c(=O)n7C6CCC(=O)NC6=O)cc4)C5)cn3)c2=O)nn2c(C(=O)N[C@@H]3C[C@@H]3F)cnc12 (stereo partly shown) ?
Reply: > 100 nM

Ask: Query: DC50; subject: CNc1cc(Nc2cccn(-c3cc(C(=O)NCCCCc4cccc5c4n(C)c(=O)n5C4CCC(=O)NC4=O)ccn3)c2=O)nn2c(C(=O)N[C@@H]3C[C@@H]3F)cnc12 (stereo partly shown)
Reply: > 100 nM

Ask: Could you share which DC50 value was measured for CNc1cc(Nc2cccn(-c3cccc(C(=O)NCCOCCOCCOCCOCCc4ccc5c(c4)n(C)c(=O)n5C4CCC(=O)NC4=O)c3)c2=O)nn2c(C(=O)N[C@@H]3C[C@@H]3F)cnc12 (stereo partly shown) ?
Reply: > 100 nM

Ask: What measured DC50 goes with CNc1cc(N2CCOc3c(-c4ccc(CN5CCN(c6ccc(-c7ccc8c(c7)n(C)c(=O)n8C7CCC(=O)NC7=O)cc6)CC5)cn4)cccc32)nn2c(C(=O)N[C@@H]3C[C@@H]3F)cnc12 (stereo partly shown) ?
Reply: 10 to 100 nM

Ask: Dear colleague, I am looking for the recorded DC50 of the following compound: CNc1cc(Nc2cccc(CN3CCC4(CCCN(CCC5C=c6c(n(C7CCC(=O)NC7=O)c(=O)n6C)=CC5)C4)C3)c2)nn2c(C(=O)NC3CC3)cnc12 (stereo not shown)
Reply: > 100 nM

Ask: What does the data say about its DC50? Entry: CNc1cc(Nc2cccc(-c3ccc(CN4CCN(C5CCC(c6ccc(-c7ccc8c(c7)n(C)c(=O)n8C7CCC(=O)NC7=O)cc6)CC5)CC4)cn3)c2OC)nn2c(C(=O)N[C@@H]3C[C@@H]3F)cnc12 (stereo partly shown)
Reply: < 1 nM

Ask: Param item = CNc1cc(Nc2cccn(-c3ccc(C(=O)NCCOCCOCCOCCOCCOCCOCCc4cccc5c4n(C)c(=O)n5C4CCC(=O)NC4=O)cn3)c2=O)nn2c(C(=O)N[C@@H]3C[C@@H]3F)cnc12 (stereo partly shown) ; retrieve measured DC50.
Reply: > 100 nM

Ask: What value of measured DC50 is listed for CNc1cc(Nc2cccn(-c3ccc(C(=O)N(C)C4CCC(N5CCN(c6ccc7c(c6)n(C)c(=O)n7C6CCC(=O)NC6=O)CC5)CC4)cn3)c2=O)nn2c(C(=O)N[C@@H]3C[C@@H]3F)cnc12 (stereo partly shown) ?
Reply: < 1 nM

---

# DC50 per entry
- subject_of_test: TYK2 (Homo sapiens, UniProt P29597)
- Sequence (P29597 whole entry): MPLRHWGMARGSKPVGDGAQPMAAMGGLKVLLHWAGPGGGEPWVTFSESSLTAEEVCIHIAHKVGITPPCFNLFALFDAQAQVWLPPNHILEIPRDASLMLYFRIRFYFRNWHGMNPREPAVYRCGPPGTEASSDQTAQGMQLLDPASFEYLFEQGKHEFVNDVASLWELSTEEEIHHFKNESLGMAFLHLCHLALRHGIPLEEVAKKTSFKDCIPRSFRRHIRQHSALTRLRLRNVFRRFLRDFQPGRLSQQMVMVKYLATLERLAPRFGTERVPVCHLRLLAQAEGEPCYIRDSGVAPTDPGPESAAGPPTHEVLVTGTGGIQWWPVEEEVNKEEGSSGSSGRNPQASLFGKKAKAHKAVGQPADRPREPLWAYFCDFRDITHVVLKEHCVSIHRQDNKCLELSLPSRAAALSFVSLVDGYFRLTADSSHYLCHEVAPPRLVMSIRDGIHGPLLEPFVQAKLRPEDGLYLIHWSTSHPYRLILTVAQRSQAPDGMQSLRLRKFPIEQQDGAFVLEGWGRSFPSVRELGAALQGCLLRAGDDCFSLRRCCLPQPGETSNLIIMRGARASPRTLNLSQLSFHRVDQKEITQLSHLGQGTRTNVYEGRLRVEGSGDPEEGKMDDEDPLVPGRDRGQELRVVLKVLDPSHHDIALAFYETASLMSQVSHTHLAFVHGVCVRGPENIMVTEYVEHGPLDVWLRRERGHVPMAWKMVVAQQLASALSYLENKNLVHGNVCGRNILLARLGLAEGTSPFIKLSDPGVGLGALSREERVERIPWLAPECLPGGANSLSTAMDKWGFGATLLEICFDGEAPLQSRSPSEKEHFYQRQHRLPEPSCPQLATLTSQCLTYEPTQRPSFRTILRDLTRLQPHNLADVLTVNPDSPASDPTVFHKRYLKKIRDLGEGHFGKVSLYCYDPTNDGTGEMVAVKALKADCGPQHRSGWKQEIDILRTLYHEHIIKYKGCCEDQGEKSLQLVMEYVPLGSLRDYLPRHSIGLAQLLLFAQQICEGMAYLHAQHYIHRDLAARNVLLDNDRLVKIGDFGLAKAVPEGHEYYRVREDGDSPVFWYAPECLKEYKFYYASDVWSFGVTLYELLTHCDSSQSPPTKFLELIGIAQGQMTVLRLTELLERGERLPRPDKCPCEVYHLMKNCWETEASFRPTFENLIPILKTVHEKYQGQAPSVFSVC
- assay_name: TYK2 degradation MSD assay in EBV-B cells
- Format: cell-based
- Parameters: endogenous in cells; host or cells: EBV-B cells
- setup_conditions: 4 to 24 hours incubation, read-out: TYK2 MSD DC50 rating in EBV-B

INSERT INTO results (compound, reported_metric, observed_measurement) VALUES
  ('CNC(=O)c1cnc(Nc2ccc(CN3CCN(c4ccc5c(c4)n(C)c(=O)n5C4CCC(=O)NC4=O)CC3)cn2)cc1Nc1cccc(-c2ncc(F)cn2)c1OC (centres unmarked)', 'DC50', '< 1 nM'),
  ('CCc1nn(-c2cccc(F)c2OC)c2cc(Nc3ccc(CN(C)C4CCN(c5cccc6c5n(C)c(=O)n6C5CCC(=O)NC5=O)CC4)cn3)ncc12 (centres unmarked)', 'DC50', '> 100 nM'),
  ('CNc1cc(Nc2cccc(-c3ccc(CN4CCN(c5ccc(-c6ccc7c(c6)n(C)c(=O)n7C6CCC(=O)NC6=O)cc5)CC4)cn3)c2)nn2c(C(=O)NC3CCC3)cnc12 (centres unmarked)', 'DC50', '> 100 nM');

Ask: // returns reported DC50 for input CNc1cc(Nc2cccn(-c3ccc(C(=O)NCCCCc4ccc5c(c4)n(C)c(=O)n5C4CCC(=O)NC4=O)cn3)c2=O)nn2c(C(=O)N[C@@H]3C[C@@H]3F)cnc12 (some centres unmarked)
Reply: > 100 nM

Ask: Value lookup for DC50; key = CNc1cc(Nc2cccn(-c3ccc(C(=O)NCCCCCCCCc4cncc(N5CCC[C@H](C(=O)Nc6ccc(=O)n(CC(=O)OC)c6)C5)c4)cn3)c2=O)nn2c(C(=O)N[C@@H]3C[C@@H]3F)cnc12
Reply: > 100 nM

These entries and their values trace back to patent US20250051338A1.
